- TEST_PROTOCOL: Thermodynamic (equilibrium) solubility, saturation shake-flask, in Prisma HT buffer
- Format: physicochemical
- CONDITION_NOTES: aqueous buffer, thermodynamic from solid, pH 2.15, 37 °C, read-out: Equilibrium solubility S ± SD
- Experimental: The methods for thermodynamic solubility measurements can be found in Baka et al. (measured amount of TEL: 1 mg/mL, 37 °C, 6 h strirring, 18 h sedimentation). During the thermodynamic solubility measurements in Prisma buffers the concentration of the API was determined without filtering the solutions by the Rainbow Dynamic Dissolution Monitor instrument (Pion Inc., Billerica, MA, USA). […]
MEASURE_NAME: solubility thermodynamic at 6 h
Remember to quote the unit after the number.

Input: Could you please provide reported solubility thermodynamic at 6 h for CCCc1nc2c(C)cc(-c3nc4ccccc4n3C)cc2n1Cc1ccc(-c2ccccc2C(=O)O)cc1 ? Thanks!
Output: 119 µg/mL

----------
- TEST_PROTOCOL: UV/pH titration in aqueous medium (pKa determination)
- Format: physicochemical
- CONDITION_NOTES: aqueous 0.15 M KCl solution, UV/pH titration in aqueous medium, 37 °C, I = 0.15 M KCl; read-out: pKa3 ± SD (Terminal Benzimidazole Ring)
MEASURE_NAME: pKa
Respond with the number and no other words.

Input: Could you please provide reported pKa for CCCc1nc2c(C)cc(-c3nc4ccccc4n3C)cc2n1Cc1ccc(-c2ccccc2C(=O)O)cc1 [Telmisartan, telmisartan] ? Thanks!
Output: 5.91

----------
- TEST_PROTOCOL: Thermodynamic (equilibrium) solubility, saturation shake-flask, in Prisma HT buffer
- Type: physicochemical
- CONDITION_NOTES: pH 9.4, aqueous buffer, thermodynamic from solid, pH 9.40, 37 °C, read-out: Equilibrium solubility logS ± SD (converted)
MEASURE_NAME: solubility thermodynamic at 6 h (µM)
Report the value in µM with no unit label.

Input: Could you please provide reported solubility thermodynamic at 6 h for CCCc1nc2c(C)cc(-c3nc4ccccc4n3C)cc2n1Cc1ccc(-c2ccccc2C(=O)O)cc1 [Telmisartan, telmisartan] ? Thanks!
Output: 537

----------
- TEST_PROTOCOL: Thermodynamic (equilibrium) solubility, saturation shake-flask, in Prisma HT buffer
- Format: physicochemical
- CONDITION_NOTES: pH 1.6, aqueous buffer, thermodynamic from solid, pH 1.60, 37 °C, read-out: Equilibrium solubility logS ± SD (converted)
MEASURE_NAME: solubility thermodynamic at 6 h (µM)
Report the value in µM with no unit label.

Input: Could you please provide reported solubility thermodynamic at 6 h for CCCc1nc2c(C)cc(-c3nc4ccccc4n3C)cc2n1Cc1ccc(-c2ccccc2C(=O)O)cc1 [Telmisartan, telmisartan] ? Thanks!
Output: 288

----------
- TEST_PROTOCOL: Thermodynamic (equilibrium) solubility, saturation shake-flask, in Prisma HT buffer
- Format: physicochemical
- CONDITION_NOTES: pH 1.6, aqueous buffer, thermodynamic from solid, pH 1.60, 37 °C, read-out: Equilibrium solubility S ± SD
MEASURE_NAME: solubility thermodynamic at 6 h
Remember to quote the unit after the number.

Input: Could you please provide reported solubility thermodynamic at 6 h for CCCc1nc2c(C)cc(-c3nc4ccccc4n3C)cc2n1Cc1ccc(-c2ccccc2C(=O)O)cc1 [Telmisartan, telmisartan] ? Thanks!
Output: 150 µg/mL

----------
- TEST_PROTOCOL: Thermodynamic (equilibrium) solubility, saturation shake-flask, in Prisma HT buffer
- Assay type: physicochemical
- CONDITION_NOTES: aqueous buffer, thermodynamic from solid, pH 9.79, 37 °C, read-out: Equilibrium solubility S ± SD
MEASURE_NAME: solubility thermodynamic at 6 h

Input: Could you please provide reported solubility thermodynamic at 6 h for CCCc1nc2c(C)cc(-c3nc4ccccc4n3C)cc2n1Cc1ccc(-c2ccccc2C(=O)O)cc1 [Telmisartan, telmisartan] ? Thanks!
Output: 1470 µg/mL

----------
- TEST_PROTOCOL: Thermodynamic (equilibrium) solubility, saturation shake-flask, in Prisma HT buffer
- Format: physicochemical
- CONDITION_NOTES: aqueous buffer, thermodynamic from solid, pH 3.82, 37 °C, read-out: Equilibrium solubility logS ± SD (converted)
MEASURE_NAME: solubility thermodynamic at 6 h (µM)
Report the value in µM with no unit label.

Input: Could you please provide reported solubility thermodynamic at 6 h for CCCc1nc2c(C)cc(-c3nc4ccccc4n3C)cc2n1Cc1ccc(-c2ccccc2C(=O)O)cc1 ? Thanks!
Output: 7.08

----------
- TEST_PROTOCOL: Thermodynamic (equilibrium) solubility, saturation shake-flask, in Prisma HT buffer
- Format: physicochemical
- CONDITION_NOTES: aqueous buffer, thermodynamic from solid, pH 2.15, 37 °C, read-out: Equilibrium solubility logS ± SD (converted)
MEASURE_NAME: solubility thermodynamic at 6 h (µM)
Report the value in µM with no unit label.

Input: Could you please provide reported solubility thermodynamic at 6 h for CCCc1nc2c(C)cc(-c3nc4ccccc4n3C)cc2n1Cc1ccc(-c2ccccc2C(=O)O)cc1 ? Thanks!
Output: 229

----------
- TEST_PROTOCOL: Thermodynamic (equilibrium) solubility, saturation shake-flask, in distilled water
- Format: physicochemical
- CONDITION_NOTES: thermodynamic from solid, pH 3.98, 37 °C, read-out: Equilibrium solubility S ± SD
MEASURE_NAME: solubility thermodynamic at 6 h (µg/mL)
Report the value in µg/mL with no unit label.

Input: Could you please provide reported solubility thermodynamic at 6 h for CCCc1nc2c(C)cc(-c3nc4ccccc4n3C)cc2n1Cc1ccc(-c2ccccc2C(=O)O)cc1 [Telmisartan, telmisartan] ? Thanks!
Output: 0.36

----------
- TEST_PROTOCOL: Thermodynamic (equilibrium) solubility, saturation shake-flask, in Prisma HT buffer
- Type: physicochemical
- CONDITION_NOTES: aqueous buffer, thermodynamic from solid, pH 11.74, 37 °C, read-out: Equilibrium solubility S ± SD
MEASURE_NAME: solubility thermodynamic at 6 h (µg/mL)
Report the value in µg/mL with no unit label.

Input: Could you please provide reported solubility thermodynamic at 6 h for CCCc1nc2c(C)cc(-c3nc4ccccc4n3C)cc2n1Cc1ccc(-c2ccccc2C(=O)O)cc1 ? Thanks!
Output: 2250

----------
- TEST_PROTOCOL: Thermodynamic (equilibrium) solubility, saturation shake-flask, in Prisma HT buffer
- Format: physicochemical
- CONDITION_NOTES: pH 9.4, aqueous buffer, thermodynamic from solid, pH 9.40, 37 °C, read-out: Equilibrium solubility S ± SD
MEASURE_NAME: solubility thermodynamic at 6 h (µg/mL)
Report the value in µg/mL with no unit label.

Input: Could you please provide reported solubility thermodynamic at 6 h for CCCc1nc2c(C)cc(-c3nc4ccccc4n3C)cc2n1Cc1ccc(-c2ccccc2C(=O)O)cc1 [Telmisartan, telmisartan] ? Thanks!
Output: 275

----------
- TEST_PROTOCOL: Thermodynamic (equilibrium) solubility, saturation shake-flask, in Prisma HT buffer
- Type: physicochemical
- CONDITION_NOTES: aqueous buffer, thermodynamic from solid, pH 9.79, 37 °C, read-out: Equilibrium solubility logS ± SD (converted)
MEASURE_NAME: solubility thermodynamic at 6 h (µM)
Report the value in µM with no unit label.

Input: Could you please provide reported solubility thermodynamic at 6 h for CCCc1nc2c(C)cc(-c3nc4ccccc4n3C)cc2n1Cc1ccc(-c2ccccc2C(=O)O)cc1 ? Thanks!
Output: 2880

----------
- TEST_PROTOCOL: Thermodynamic (equilibrium) solubility, saturation shake-flask, in Prisma HT buffer
- Assay type: physicochemical
- CONDITION_NOTES: pH 6.5, aqueous buffer, thermodynamic from solid, pH 6.50, 37 °C, read-out: Equilibrium solubility S ± SD
MEASURE_NAME: solubility thermodynamic at 6 h (µg/mL)
Report the value in µg/mL with no unit label.

Input: Could you please provide reported solubility thermodynamic at 6 h for CCCc1nc2c(C)cc(-c3nc4ccccc4n3C)cc2n1Cc1ccc(-c2ccccc2C(=O)O)cc1 ? Thanks!
Output: 0.79

----------
- TEST_PROTOCOL: Thermodynamic (equilibrium) solubility, saturation shake-flask, in distilled water
- Format: physicochemical
- CONDITION_NOTES: thermodynamic from solid, pH 3.08, 37 °C, read-out: Equilibrium solubility logS ± SD (converted)
MEASURE_NAME: solubility thermodynamic at 6 h (µM)
Report the value in µM with no unit label.

Input: Could you please provide reported solubility thermodynamic at 6 h for CCCc1nc2c(C)cc(-c3nc4ccccc4n3C)cc2n1Cc1ccc(-c2ccccc2C(=O)O)cc1 ? Thanks!
Output: 6.61

----------
- TEST_PROTOCOL: Thermodynamic (equilibrium) solubility, saturation shake-flask, in distilled water
- Assay type: physicochemical
- CONDITION_NOTES: pH 2.66, 37 °C, read-out: Equilibrium solubility S ± SD
MEASURE_NAME: solubility thermodynamic at 6 h (µg/mL)
Report the value in µg/mL with no unit label.

Input: Could you please provide reported solubility thermodynamic at 6 h for CCCc1nc2c(C)cc(-c3nc4ccccc4n3C)cc2n1Cc1ccc(-c2ccccc2C(=O)O)cc1 ? Thanks!
Output: 10.8
